Where these numbers come from: ChEMBL document CHEMBL3988442

# tgt: Ubiquitin-activating enzyme e1, putative (Leishmania donovani (strain BPK282A1)) (UniProt E9BSI1)
# Sequence (E9BSI1 as listed by the source): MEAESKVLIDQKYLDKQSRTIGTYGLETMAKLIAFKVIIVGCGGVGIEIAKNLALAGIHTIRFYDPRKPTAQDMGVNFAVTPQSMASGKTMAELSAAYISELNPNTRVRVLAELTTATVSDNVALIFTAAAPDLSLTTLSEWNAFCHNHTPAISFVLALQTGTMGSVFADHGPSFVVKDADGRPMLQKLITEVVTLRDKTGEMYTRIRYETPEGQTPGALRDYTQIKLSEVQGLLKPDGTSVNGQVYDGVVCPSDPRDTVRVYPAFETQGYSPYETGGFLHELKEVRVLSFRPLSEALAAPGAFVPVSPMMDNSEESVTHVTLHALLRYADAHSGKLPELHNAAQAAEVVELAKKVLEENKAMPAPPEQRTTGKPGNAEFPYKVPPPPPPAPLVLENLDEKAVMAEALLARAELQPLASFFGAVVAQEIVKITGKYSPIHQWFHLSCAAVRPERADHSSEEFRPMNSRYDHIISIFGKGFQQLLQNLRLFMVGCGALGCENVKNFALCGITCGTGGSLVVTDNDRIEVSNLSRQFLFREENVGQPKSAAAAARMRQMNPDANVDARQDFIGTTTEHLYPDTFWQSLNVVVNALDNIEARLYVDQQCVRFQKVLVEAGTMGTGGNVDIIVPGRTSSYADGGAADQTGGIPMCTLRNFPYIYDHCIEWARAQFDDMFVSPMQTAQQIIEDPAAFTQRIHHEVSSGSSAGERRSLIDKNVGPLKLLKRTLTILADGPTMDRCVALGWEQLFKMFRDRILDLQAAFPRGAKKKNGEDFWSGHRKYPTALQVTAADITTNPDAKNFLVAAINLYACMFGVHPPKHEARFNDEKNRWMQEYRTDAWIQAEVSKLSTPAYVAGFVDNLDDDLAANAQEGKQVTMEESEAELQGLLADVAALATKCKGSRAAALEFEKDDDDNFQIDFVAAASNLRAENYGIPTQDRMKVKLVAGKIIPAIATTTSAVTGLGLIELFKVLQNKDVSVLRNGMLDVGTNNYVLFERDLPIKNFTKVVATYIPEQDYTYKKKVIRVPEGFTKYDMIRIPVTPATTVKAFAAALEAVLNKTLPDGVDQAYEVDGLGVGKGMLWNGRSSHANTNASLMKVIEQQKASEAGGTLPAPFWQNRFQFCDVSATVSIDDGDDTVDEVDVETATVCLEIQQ
# measurement.description: Leishmania donovani Ubiquitin Activating Enzyme (LdE1)
# Type: functional
# Parameters: scale not given: direction of the effect not stated beside the values
# measurement.setup: 30 µM
Potency and affinity values are given separately.
measured.parameter: Percent Effect (%)
Field format: number, assumed %, no unit text.

Please review the entries below; each comes with its answer.
{"columns": ["compound", "measured.parameter", "val"],
 "data": [
  ["Cc1nc(C)n(CC2CN(CCc3ccncc3)CCO2)n1 (stereo unspecified)", "Percent Effect", 5.48],
  ["CC(=O)N1CCC(c2ccnc(Nc3cncnc3)n2)C1 (stereo unspecified)", "Percent Effect", 13.3]
]}

Turning to the following compound.
Fill in the blank: the reported Percent Effect of Cc1ccc2c(c1)C1(CC2)CCN(c2nncs2)CC1 is ____.
0

====

# tgt: Proteasome subunit beta (Trypanosoma cruzi)
# measurement.description: Trypanosoma cruzi proteasome chymotrypsin-like activity (TcProtChymo) assay. Also: in the data most compounds retested in dose-response had high values.
# Type: functional
# Design: scale not given: direction of the effect not stated beside the values
# measurement.setup: 9.37 µM
Listed next: entries and their corresponding Percent Effect.
Just so you know, I need the unit written after the number.

{"columns": ["molecule", "Percent Effect"],
 "data": [
  ["CC(C)(C)SCCCC(=O)N1CCC(Nc2cccnn2)CC1", "-1.98%"]
]}

# get_value(readout='Percent Effect', item= CC(C)c1nccn1C1CCCN(C(=O)c2cnn(C)c2C2CC2)C1 (configuration not stated) )
6.34%

====

# tgt: Chromo domain-containing protein 1 (Saccharomyces cerevisiae (strain ATCC 204508 / S288c) (Baker's yeast))
# measurement.description: ScCHD-1 Enzyme Inhibition Assay; also: in the data most compounds retested in dose-response had high values
# Type: functional
# Design: scale not given: direction of the effect not stated beside the values
# measurement.setup: 30 µM
measured.parameter: Percent Effect (%)
Field format: number, assumed %, no unit text.

{"columns": ["molecule", "Percent Effect [%]"],
 "data": [
  ["CCS(=O)(=O)N1CCC(c2nnc(CN3CCCC3)n2C2CC2)CC1", -7.31]
]}

Which Percent Effect is listed for O=C(CCC1CCCO1)NS(=O)(=O)c1ccc(Cl)cc1 (configuration not stated) ?
-1.63

What value of Percent Effect has been reported for the following molecule? Cc1ncsc1C(=O)NCCSCCCO
-4.16

Query (molecule): CCCc1n[nH]c(C2CN(Cc3nnc(C4CC4)o3)CCO2)n1 (configuration not stated) ; field requested: Percent Effect
-0.679

Need Percent Effect of O=C(NCCCn1cccn1)N1CCCC1c1ccncc1 (configuration not stated) , thanks.
-6.79

Quick one: Percent Effect for CC(C)Oc1ncccc1CNC(=O)N1CCC(C(N)=O)C1 (configuration not stated) ?
-0.235

Given O=C(c1cnoc1)N1CCC[C@]2(C[C@H](Oc3ncccc3F)CO2)C1 , state its recorded Percent Effect.
-3.75

// lookup Percent Effect for Cc1nc2c(c(C)c1CC(=O)Nc1ccc(Cl)cc1)c(=O)[nH]n2C
3.39

What measured Percent Effect goes with O=C(c1ccc(F)cc1)N1CCN2C[C@H](OCc3ccccn3)C[C@H]2C1 ?
1.66

What Percent Effect value was documented for this molecule, CCOCCn1nc(C)cc1C(=O)N1CCN(C(C)C)C(CC)C1 (configuration not stated) ?
-1.83

State the recorded Percent Effect for this entry: c1ncn(CC2CCCN(Cc3nc(C4CC4)no3)C2)n1 (configuration not stated)
-1.7

What value of Percent Effect has been reported for the following molecule? CC(CNC(=O)c1ccccc1Oc1cccnc1)N(C)C (configuration not stated)
-1.53

====

# tgt: AMP-activated protein kinase, AMPK (Homo sapiens) (UniProt P54646+O43741+P54619+Q9UGJ0+Q9Y478+Q13131+Q9UGI9)
# measurement.description: AMP-dependent Kinase enzyme assay. An in vitro enzyme assay that detects ADP turnover that is directly proportional to AMPK activity. This uses naive AMPK that is activated during the assay with MK-8722
# Format: functional
# Set-up: scale not given: direction of the effect not stated beside the values
# measurement.setup: 30 µM
# Percent Effect listing for each entry below
Mention the unit after the number when you answer.

Example entries begin here.
{"columns": ["compound", "Percent Effect"],
 "data": [
  ["O=C1N(Cc2cccc(F)c2F)CCCC1(O)CNC1CCCC1 (stereo unspecified)", "-3.79%"],
  ["OC(COCc1cccs1)CN1CCC(c2ccn[nH]2)CC1 (stereo unspecified)", "-3.7%"],
  ["CN(CC(=O)N1CCCC1c1cnn(C)c1)c1ccc(Cl)cn1 (stereo unspecified)", "-2.82%"]
]}

Query (compound): CC1=Nc2c(c(=O)[nH]n2C2CCCC2)C(c2cccc(O)c2)S1 (stereo unspecified) ; field requested: Percent Effect
11.5%

So what does the record say about Percent Effect for O=C(Cn1nc(-c2ccc(F)cc2)oc1=O)Nc1ccccc1 ?
-0.861%

Need Percent Effect of CCc1cccc(NS(=O)(=O)c2cc3c(c(C(=O)O)c2)OCCO3)c1 , thanks.
-5.84%

====

# Organism: Homo sapiens
# measurement.description: To identify inhibition of the IFN signalling (Jak-Stat) pathway via expression of an eGFP reporter gene under the control of an IFN-stimulated response element (ISRE) containing MxA promoter.
# Assay type: functional
# Set-up: scale not given: direction of the effect not stated beside the values
# measurement.setup: 30 µM
measured.parameter: Percent Effect (%)
Express your answer in %, writing the number without its unit.

{"columns": ["molecule", "measurement.unit", "Percent Effect"],
 "data": [
  ["O=C(C1CCCc2[nH]ncc21)N1CCCCCC1 (configuration not stated)", "%", 0.454],
  ["O=C(c1cnccn1)N1C[C@@H]2CC[C@H](C1)N(C(=O)Cc1ccsc1)C2", "%", 8.73],
  ["Cc1cc(C)c(CNC(=O)N(C)Cc2sccc2C)c(=O)[nH]1", "%", 9.33],
  ["CN(C)Cc1nnc(C2CCN(C(=O)CCc3cccs3)CC2)n1C", "%", 5.64],
  ["O[C@H]1[C@H](n2cc(-c3ccccc3)nn2)c2ccccc2C12CCNCC2", "%", 12.5]
]}

Entry under review: COCCn1nc(C(=O)N(C)Cc2cnn(C)c2)ccc1=O . Reported Percent Effect?
9.08

Recorded Percent Effect for COc1cccc(CCNS(=O)(=O)c2ccc(NC(C)=O)cc2)c1 , please?
21.2

====

# tgt: Sialic acid-binding Ig-like lectin 9 (Homo sapiens)
# measurement.description: Hs-Siglec9 ALPHAscreen SOP 20170721
# Parameters: scale not given: direction of the effect not stated beside the values
# measurement.setup: 10 µM
Attribute: Percent Effect
Please state the figure in %; there is no need to write the unit.

For orientation, consider the following solved cases.
{"columns": ["compound", "Percent Effect (%)"],
 "data": [
  ["CNC(=O)[C@H]1C[C@@H]2CN(C(=O)c3cscn3)C[C@@H]2N1S(C)(=O)=O", 9.01],
  ["CCOc1cc(C)nc(N2CCN(C(=O)c3ccc[nH]3)CC2)n1", 13.3],
  ["O=C(CCNS(=O)(=O)c1ccccc1)NCc1ccoc1", 7.78],
  ["CSc1sc(NC(=O)Cc2c(C)nc(C)[nH]c2=O)nc1C", 7.61],
  ["Cc1cc(C(=O)N[C@@H]2CCNC[C@H]2O)ccc1Cl", 10.1],
  ["COCCNS(=O)(=O)c1ccc2c(c1)CCN(C(=O)c1cncn1C)C2", 2.73],
  ["CCCC(=O)NCc1cc(Br)c(OC)c(OC)c1", 14.4],
  ["O=C(c1cccc(CNCC2CNc3ccnn3C2)c1)N1CCCC1 (stereo unspecified)", -4.78]
]}

What is its Percent Effect for Sialic acid-binding Ig-like lectin 9 (Homo sapiens)? Entry: Cc1ccoc1C(=O)N1CC[C@H]2OCC[C@@]2(COCc2ccncc2)C1
3.48

Checklist item: Percent Effect tested on Sialic acid-binding Ig-like lectin 9 (Homo sapiens), entry Cc1nocc1C(=O)N1CCc2c(CN(C)C(C)C)n[nH]c2C1 , value?
8.21

Which Percent Effect is reported with Sialic acid-binding Ig-like lectin 9 (Homo sapiens) for this entry: Cc1noc(C(C)N2CCN(CCCN3CCCC3=O)CC2)n1 (stereo unspecified) ?
1.61

====

Recorded Percent Effect, one value per entry.
# tgt: Ubiquitin-activating enzyme e1, putative (Leishmania donovani (strain BPK282A1))
# measurement.description: Leishmania donovani Ubiquitin Activating Enzyme (LdE1)
# Format: functional
# Design: scale not given: direction of the effect not stated beside the values
# measurement.setup: 30 µM
Results with a measured potency or affinity are listed apart.
Give your result in % as a bare value.

Sample Cn1nc(C2CN(C(=O)c3cscn3)C2)c2nccnc21 — what was its Percent Effect?
17.6

====

# Species: Homo sapiens
# measurement.description: To identify inhibition of the IFN signalling (Jak-Stat) pathway via expression of an eGFP reporter gene under the control of an IFN-stimulated response element (ISRE) containing MxA promoter.
# Format: functional
# Set-up: scale not given: direction of the effect not stated beside the values
# measurement.setup: 30 µM
Exam item: assign Condition met to entries whose Percent Effect is below 10% and Condition not met to entries at or above 10%. Note that a value of exactly 10% receives Condition not met.

Worked set:
{"columns": ["compound", "category"],
 "data": [
  ["CCC(C)NC(=O)Nc1ccc(CN2CCOC2=O)cc1 (stereo unspecified)", "Condition not met"],
  ["CN(C)c1cc(CNC(=O)c2ccc(F)cc2F)ccn1", "Condition met"],
  ["Cc1cc(C)cc(C2(C(=O)N3CCCC(n4cncn4)C3)CC2)c1 (stereo unspecified)", "Condition not met"],
  ["O=C(c1cccc(CNCC2CNc3ccnn3C2)c1)N1CCCC1 (stereo unspecified)", "Condition met"],
  ["O=C(c1ccncc1)N1Cc2ccccc2OC2(CCOCC2)C1", "Condition met"]
]}

# ---- query compound ----
Quick check: does COc1ncccc1NC(=O)C1CCS(=O)(=O)C1 (stereo unspecified) have Percent Effect under 10%?
Condition not met
